Assay: logP by HPLC on reversed-phase columns (C 18), EEC directive 79/831 Annex V.A8
Type: physicochemical
Settings: LC-MS, neutral range, pH 7.8, 0.001 molar aqueous ammonium hydrogencarbonate and acetonitrile
MEASURED PROPERTY: Log P [b]

Below: 6 compounds and their reported Log P [b].
C#CCOc1cccc(Cl)c1C1CC(c2csc(C3CCN(C(=O)Cn4nc(C(F)(F)F)cc4C)CC3)n2)=NO1 (stereo not shown)    3.53[b]
C#CCOc1cccc(Cl)c1C1CC(c2csc(C3CCN(C(=O)Nc4cc(C)ccc4C)CC3)n2)=NO1 (racemic)    3.57[b]
C=CCOc1c(F)cccc1C1CC(c2csc(C3CCN(C(=O)Cn4nc(C(F)(F)F)cc4C)CC3)n2)=NO1 (racemic)    3.84[b]
Cc1cc(C(F)(F)F)nn1CC(=O)N1CCC(c2nc(C3=NOC(c4ccccc4OC(=O)C4CC4)C3)cs2)CC1 (racemic)    3.41[b]
C=CCOc1cccc(F)c1C1CC(c2csc(C3CCN(C(=O)Nc4cc(C)ccc4C)CC3)n2)=NO1 (stereo not shown)    3.62[b]
Cc1cc(C(F)(F)F)nn1CC(=O)N1CCC(c2nc(C3=NOC(c4cccc(OC(=O)C5CC5)c4)C3)cs2)CC1 (racemic)    3.47[b]

Now, please, on to the next compound.
INPUT: Returns the measured Log P [b] for the input compound. Input: C=CCOc1cccc(Cl)c1C1CC(c2csc(C3CCN(C(=O)Cn4nc(C(F)(F)F)cc4C)CC3)n2)=NO1 (racemic)
OUTPUT: 3.83[b]

* * *

System: Plasmopara viticola
Experiment: Plasmopara test (grapevine) / protective
Assay type: in vivo
Conditions: young grapevine plants, protective spray, 10 ppm active ingredient, evaluation 6 days after inoculation; 0% = control, 100% = no infection
The entries below come with measured Eff. % values attached.
# output: bare number, implied unit %

Cc1cc(C(F)(F)F)nn1CC(=O)N1CCC(c2nc(C3=NOC(c4cccc(C=O)c4)C3)cs2)CC1 (stereo not shown)    98

INPUT: Look at this compound and give its reported Eff. %. C=CCOc1cccc(Cl)c1C1CC(c2csc(C3CCN(C(=O)Cn4nc(C(F)(F)F)cc4C)CC3)n2)=NO1 (racemic)
OUTPUT: 100

INPUT: Which measured Eff. % value corresponds to C=CCOc1cccc(C2CC(c3csc(C4CCN(C(=O)Cn5nc(C(F)(F)F)cc5C)CC4)n3)=NO2)c1 (racemic) ?
OUTPUT: 78

INPUT: Can you look up the measured Eff. % of Cc1ccc(Cl)cc1NC(=O)N1CCC(c2nc(C3=NOC(c4cccc(C=O)c4)C3)cs2)CC1 (stereo not shown) for me?
OUTPUT: 100

INPUT: Which Eff. % reading was recorded for the compound Cc1cc(C(F)(F)F)nn1CC(=O)N1CCC(c2nc(C3=NOC(c4ccccc4COCC(F)(F)F)C3)cs2)CC1 (racemic) ?
OUTPUT: 83

* * *

Assay: logP by HPLC on reversed-phase columns (C 18), EEC directive 79/831 Annex V.A8
Type: physicochemical
Conditions: LC-MS, neutral range, pH 7.8, 0.001 molar aqueous ammonium hydrogencarbonate and acetonitrile
MEASURED PROPERTY: Log P [b]

// worked examples, Log P [b] included
Cc1cc(C(F)(F)F)nn1CC(=O)N1CCC(c2nc(C3=NOC(c4ccc(OC(=O)C5CC5)cc4)C3)cs2)CC1 (racemic)    3.4[b]
C=CCOc1cccc(Cl)c1C1CC(c2csc(C3CCN(C(=O)Nc4cc(Cl)ccc4C)CC3)n2)=NO1 (racemic)    4.11[b]
C=CCOc1cc(C)ccc1C1CC(c2csc(C3CCN(C(=O)Cn4nc(C(F)F)cc4C)CC3)n2)=NO1 (centres unmarked)    3.66[b];

INPUT: For C#CCOc1cccc(F)c1C1(C)CC(c2csc(C3CCN(C(=O)Cn4nc(C)cc4C(F)F)CC3)n2)=NO1 (racemic) , what is its reported Log P [b]?
OUTPUT: 3.12[b];

INPUT: For the molecule shown here, Cc1cc(C(F)(F)F)nn1CC(=O)N1CCC(c2nc(C3=NOC(c4c(F)cccc4C=O)C3)cs2)CC1 (racemic) , give the reported Log P [b].
OUTPUT: 2.95[b]

INPUT: Quick check: Log P [b] of C#CCOc1ccccc1C1CC(c2csc(C3CCN(C(=O)Cn4nc(C(F)(F)F)cc4C)CC3)n2)=NO1 (centres unmarked) ?
OUTPUT: 3.37[b]

INPUT: Quick one: Log P [b] of C#CCOc1cc(C)ccc1C1CC(c2csc(C3CCN(C(=O)Cn4nc(C(F)(F)F)cc4C)CC3)n2)=NO1 (centres unmarked) ?
OUTPUT: 3.61[b]

* * *

Test system: Plasmopara viticola
Assay: Plasmopara test (grapevine) / protective
Assay type: in vivo
Conditions: young grapevine plants, protective spray, 10 ppm active ingredient, evaluation 6 days after inoculation; 0% = control, 100% = no infection
MEASURED PROPERTY: Eff. % (%)
Give the value in % but do not write % after it.

Recorded Eff. %, per entry:
Cc1cc(C(F)(F)F)nn1CC(=O)N1CCC(c2nc(C3=NOC(c4ccccc4C=O)C3)cs2)CC1 (centres unmarked) [Ex. 7]    100
C=CCOc1ccccc1C1CC(c2csc(C3CCN(C(=O)Cn4nc(C)cc4C(F)F)CC3)n2)=NO1 (centres unmarked) [Ex. 18]    95
Cc1ccc(Cl)cc1NC(=O)N1CCC(c2nc(C3=NOC(c4ccccc4C=O)C3)cs2)CC1 (centres unmarked) [Ex. 3]    100
C#CCOc1cccc(Cl)c1C1CC(c2csc(C3CCN(C(=O)Nc4cc(C)ccc4C)CC3)n2)=NO1 (racemic) [Ex. 38]    100
C#CCOc1ccccc1C1CC(c2csc(C3CCN(C(=O)Cn4nc(C)cc4C(F)F)CC3)n2)=NO1 (centres unmarked) [Ex. 29]    100

INPUT: Record request: Eff. % value, item C=CCOc1cccc(F)c1C1CC(c2csc(C3CCN(C(=O)Nc4cc(C)ccc4C)CC3)n2)=NO1 (centres unmarked) [Ex. 25]
OUTPUT: 100

INPUT: Eff. % for Cc1cc(C(F)(F)F)nn1CC(=O)N1CCC(c2nc(C3=NOC(c4ccccc4OCC4CC4)C3)cs2)CC1 (centres unmarked) [Ex. 17] ?
OUTPUT: 92

INPUT: Field request: Eff. % | item: Cc1cc(C(F)(F)F)nn1CC(=O)N1CCC(c2nc(C3=NOC(c4cccc(OC(=O)C5CC5)c4)C3)cs2)CC1 (racemic) [Ex. 40]
OUTPUT: 85

INPUT: Quick one: Eff. % of Cc1cc(C(F)(F)F)nn1CC(=O)N1CCC(c2nc(C3=NOC(c4cccc(F)c4OC(=O)C4CC4)C3)cs2)CC1 (racemic) [Ex. 54] ?
OUTPUT: 91

INPUT: I have this compound here, C#CCOc1ccccc1C1CC(c2csc(C3CCN(C(=O)Cn4nc(C(F)(F)F)cc4C)CC3)n2)=NO1 (centres unmarked) [Ex. 13] , and I need its recorded Eff. %.
OUTPUT: 100

INPUT: Given the compound C#CCOc1ccccc1C1CC(c2csc(C3CCN(C(=O)Nc4cc(C)ccc4C)CC3)n2)=NO1 (racemic) [Ex. 45] , what is its reported Eff. %?
OUTPUT: 96

* * *

Recorded Log P [a] for the following compounds
Experiment: logP by HPLC on reversed-phase columns (C 18), EEC directive 79/831 Annex V.A8
Assay type: physicochemical
Conditions: LC-MS, acidic range, pH 2.7, 0.1% aqueous formic acid and acetonitrile

INPUT: If you can, please state the reported Log P [a] value of Cc1cc(C(F)(F)F)nn1CC(=O)N1CCC(c2nc(C3=NOC(c4ccccc4C[S+](C)[O-])C3)cs2)CC1 (mixture of isomers) [Ex. 35] .
OUTPUT: 2.34[a]

INPUT: What does the record list as Log P [a] for Cc1cc(C(F)(F)F)nn1CC(=O)N1CCC(c2nc(C3=NOC(c4ccccc4OC(=O)C4CC4)C3)cs2)CC1 (racemic) [Ex. 56] ?
OUTPUT: 3.52[a];

INPUT: Request the reported Log P [a] associated with C#CCOc1ccccc1C1CC(c2csc(C3CCN(C(=O)Cn4nc(C)cc4C(F)F)CC3)n2)=NO1 (stereo not shown) [Ex. 29]
OUTPUT: 3.03[a]

* * *

Test: logP by HPLC on reversed-phase columns (C 18), EEC directive 79/831 Annex V.A8
Format: physicochemical
Details: LC-MS, acidic range, pH 2.7, 0.1% aqueous formic acid and acetonitrile
MEASURED PROPERTY: Log P [a]

// worked examples, Log P [a] included
C#CCOc1cc(Cl)cc(Cl)c1C1CC(c2csc(C3CCN(C(=O)Cn4nc(C(F)F)cc4C)CC3)n2)=NO1 (stereo not shown)    3.66[a];
C#CCOc1cc(Cl)ccc1C1CC(c2csc(C3CCN(C(=O)Cn4nc(C(F)F)cc4C)CC3)n2)=NO1 (stereo not shown)    3.37[a];
C#CCOc1cccc(F)c1C1(C)CC(c2csc(C3CCN(C(=O)Cn4nc(C)cc4C(F)F)CC3)n2)=NO1 (racemic)    3.11[a];

# context switch: different molecule, same Log P [a]
INPUT: Report Log P [a] for COCCOc1ccccc1C1CC(c2csc(C3CCN(C(=O)Cn4nc(C(F)(F)F)cc4C)CC3)n2)=NO1 (racemic) please.
OUTPUT: 3.27[a];

Reference source for all entries: patent US9512117B2
